- Experiment: folding stability dG unfold (combined trypsin and chymotrypsin); higher = more stable
Measured Attribute: folding stability dG unfold

Answered cases to consult:
Data request: Sample SAGGPDIKIKWKIEVNPDNGMIWLTMEIEVPNPNGDFYKVRADIYIPIVNPDDGKFPIFIMLEVEPVPSAGG [r13_715_TrROS] — what was its folding stability dG unfold?
Data returned: 4.76 kcal/mol

Data request: Thanks! And SAGGMKLEILEKSENRIIIRTDEGKIYIAPEIVKKLKEKGGNIKPTLDEIIEWLEKNNIPAEDAVFGDSAGG [r13_610_TrMRF] ?
Data returned: 0.915 kcal/mol

Data request: Thanks! And SAGGMPVTTTPRTVELPDRRVEVIDRTFPNGPPRTTVVVRDPAGNLVATREFTGPEWEEWLRAEGALLSAGG [r19_90_JUSTAS] ?
Data returned: 0.707 kcal/mol

Let us move to another entry and its folding stability dG unfold.
Data request: Sample SAGGMNPDNFKPVRTYTLPFDGHKIEVEVWEPPNGNPLIPIQLEDDNGKPKGPQWIPPDQIDENGKILSAGG [r13_447_TrROS] — what was its folding stability dG unfold?
Data returned: -0.213 kcal/mol

---

- Experiment: folding stability dG unfold from trypsin proteolysis; higher = more stable
Form field: folding stability dG unfold (one value per entry).
The figure you give is taken to be in kcal/mol; do not add the unit.

Data request: Sample SKKKKIKKITLTFTTSDGSTITIEIDADQTVTITLPDGSTITITFDKDTGILTITVTNKDGSKQEFKIELSA [r9_99_TrROS_Hall] — what was its folding stability dG unfold?
Data returned: 1.82

Others:
Data request: Sample SAGGSAGGAERIKNLLEDYGFELKDVEMDEPGSTKIHITPDNPSLRKDIKDKLPPGNVDSITDTSAGGSAGG [r6_84_TrROS] — what was its folding stability dG unfold?
Data returned: -0.0811

Data request: Thanks! And STSTTITYPTLTISVEESVLPDGTPRYTVTLHLPEKGVSIPVEVDSAAEAEEAVREAIRKLLPDETVEEESA [r9_749_JUSTAS] ?
Data returned: 2.24

Data request: Thanks! And SKFDPDDPGQPVRFTVMIPVPEDAMKNGDLEEVRDKVEEAADMFRPHGMEVKDIEVPPEQGWVMVKFEMPSA [r9_75_TrROS] ?
Data returned: -0.824

Data request: Thanks! And SAGGSASTVTRTRTIPGSGLTVEITETPLPDGTYSYTVTFYAPDSALKTTPKTAAPDELPEEELLSSAGGSA [r15_147_JUSTAS] ?
Data returned: 0.35

Data request: Thanks! And SAGGAEVDPETKVVHIRIRARSAEELLAAIEALPADEVIIEVYNEETGKTERIRLSREELRKLLEEASAGGS [r16_797_TrROS_Hall] ?
Data returned: 1.92

Data request: Thanks! And SAGGSAGGSAGGMPTYEVTLEPDPTGGDVYTVTVTFPDGSTVTRNATPAELKAEGLTVKVSAGGSAGGSAGG [r7_14_JUSTAS] ?
Data returned: 1.09

---

- Experiment: folding stability dG unfold (combined trypsin and chymotrypsin); higher = more stable
Form field: folding stability dG unfold (one value per entry).

Answered cases to consult:
Data request: Sample SAGMPEVKLLPKPDGSLVLVVVFEDKAIIIEFPPDGEGKIYIIDLKNNKITEIPFPSEDPLKAIKEALSSAG [r5_674_TrMRF] — what was its folding stability dG unfold?
Data returned: 3.72 kcal/mol

Data request: Thanks! And SAGGSAGGSAGGPIVLKFKTKEEAEEFAKKLKKEIPNIKEVKIEEDPETGEYYLVVVNDSAGGSAGGSAGGS [r10_544_TrMRF] ?
Data returned: 5 kcal/mol

Data request: Thanks! And SPPVLYEITITFTYSDGTTVTKTINATVPRSQIDALIQKIIEEPGNKPYTKVTFNIYDKSTGTWTTITIDSA [r9_97_JUSTAS] ?
Data returned: 5.66 kcal/mol

Data request: Thanks! And SPKPFEMSIQIPGITPQALEKAVELARKDGWVENEIEPDPENNNVQIDVEMRGTPEKMHRAQNAIQEAIKSA [r9_652_TrROS] ?
Data returned: -0.386 kcal/mol

Data request: Thanks! And SAGGSAGGSPANIKITTTLDTETGYLTIVAYNPATGKVTVLTAKIYGNVPHIDGLEALFGALGSAGGSAGGS [r20_131_TrMRF] ?
Data returned: 2.7 kcal/mol

Data request: Thanks! And SAEVEIEVVEKDGKLYLVIRVRFPPGLKPGDKVTLTLTLPNGAKVTITRDKDGTRYITIVVELKDLEKLSAG [r14_754_TrROS_Hall] ?
Data returned: 4.69 kcal/mol

Let us move to another entry and its folding stability dG unfold.
Data request: Sample SAGGSAATVVDPSTGSTYTFTPEGSGYRITRTLVTPDPTSDAVSTAPTTELLPPSEIPPELLARLSSAGGSA [r15_703_JUSTAS] — what was its folding stability dG unfold?
Data returned: < -1 kcal/mol
